Data provenance is patent US20050031661A1.

- System: corn earworm moths
- measurement.protocol: Double component Test 7, linalool, benzyl aldehyde, phenethyl alcohol combinations
- Assay type: in vivo, Helicoverpa zea
- experimental.context: single and double component combinations dispensed from vials
I'd be grateful if you could share measured Mean (±SE) numbers of corn earworm moths captured for these entries.
Numbers only, in a.

Some compounds with recorded Mean (±SE) numbers of corn earworm moths captured:
- compound: "C=CC(C)(O)CCC=C(C)C (stereo not shown) [linalool]"
  endpoint.unit: "a"
  assay.result: 0.00
- compound: "OCCc1ccccc1 [Phenethyl alcohol, phenethyl alcohol]"
  endpoint.unit: "a"
  assay.result: 0.05

*Q* Entry O=Cc1ccccc1 [Benzyl aldehyde, benzyl aldehyde] : reported Mean (±SE) numbers of corn earworm moths captured = ?
*A* 0.05
